Target: T1, CRBN, Q96SW2;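 also: pooled lentiviral library of zinc finger degron-EGFP fusions in mCherry-positive Jurkat cells, FACS-sorted after compound exposure, with degron abundance counted by next-generation sequencing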
T1 chain: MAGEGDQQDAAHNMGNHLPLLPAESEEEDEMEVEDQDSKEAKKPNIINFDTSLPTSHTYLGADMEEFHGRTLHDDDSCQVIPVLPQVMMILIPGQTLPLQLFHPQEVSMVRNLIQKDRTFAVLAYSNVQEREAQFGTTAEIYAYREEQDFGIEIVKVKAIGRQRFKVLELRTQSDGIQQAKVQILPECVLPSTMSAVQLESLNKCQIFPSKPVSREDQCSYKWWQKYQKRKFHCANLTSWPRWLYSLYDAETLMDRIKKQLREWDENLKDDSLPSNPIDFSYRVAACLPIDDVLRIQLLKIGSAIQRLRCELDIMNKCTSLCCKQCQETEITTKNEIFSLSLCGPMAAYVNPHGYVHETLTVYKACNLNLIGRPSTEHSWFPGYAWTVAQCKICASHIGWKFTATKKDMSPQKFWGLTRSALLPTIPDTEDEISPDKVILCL
Assay: log2 fold change of degron read counts, EGFP-low vs EGFP+ sorted cells (limma voom), compound-induced degradation; higher = more compound-induced degradation of the degron-EGFP fusion; degrons are variants of IKZF1/3 zinc finger 2; compound dose not given here
Settings: Jurkat; 18 h; compound: compound 33 (diphenyl IMiD analogue)
Over roughly 8,300 sequences, “log2 fold change of degron read counts, EGFP-low vs EGFP+ sorted cells (limma voom), compound-induced degradation” has its median near -1.1; the highest 2% begin near 3.2. The sample as a whole holds a higher share of the highest values than the screen did.
ENDPOINT: log2 fold change of degron read counts
Reply with the value as a number alone.

{"columns": ["MACROMOLECULE SEQUENCE", "VALUE MEASURED"],
 "data": [
  ["FHCPVCGACFTQKGNLLRHIKL [46F_47H_49P_50V_52G_53A_54C_55F_67L_, Q9UKT9]", 2.11],
  ["FECEICGHPFTQKGNLLRHIKL [46F_47E_49E_50I_52G_53H_54P_55F_67L_, Q9UKT9]", -1.95],
  ["FGCDVCGAMFTQKGNLLRHIKL [46F_47G_49D_50V_52G_53A_54M_55F_67L_, Q9UKT9]", -0.229],
  ["FGCNVCGAEFTQKGNLLRHIKL [46F_47G_49N_50V_52G_53A_54E_55F_67L_, Q9UKT9]", -0.606],
  ["FVCDVCGACFTQKGNLLRHIKL [46F_47V_49D_50V_52G_53A_54C_55F_67L_, Q9UKT9]", 0.676],
  ["FMCEICGAIFTQKGNLLRHIKL [46F_47M_49E_50I_52G_53A_54I_55F_67L_, Q9UKT9]", 2.14],
  ["LLCEICGFQCTQKGNLLRHIKL [46L_47L_49E_50I_52G_53F_54Q_55C_67L_, Q9UKT9]", 0.751],
  ["FRCDQCGACFTQKGNLLRHIKL [46F_47R_49D_50Q_52G_53A_54C_55F_67L_, Q9UKT9]", -1.12]
]}

Query :: # get_value(readout='log2 fold change of degron read counts', item= FVCPVCGACFTQKGNLLRHIKL [46F_47V_49P_50V_52G_53A_54C_55F_67L_, Q9UKT9] )
Result :: 2.08

Query :: # get_value(readout='log2 fold change of degron read counts', item= LECEICGFQCTQKGNLLRHIKL [46L_47E_49E_50I_52G_53F_54Q_55C_67L_, Q9UKT9] )
Result :: 0.772

Query :: # get_value(readout='log2 fold change of degron read counts', item= FCCEICGAIFTQKGNLLRHIKL [46F_47C_49E_50I_52G_53A_54I_55F_67L_, Q9UKT9] )
Result :: 2.5

Query :: # get_value(readout='log2 fold change of degron read counts', item= FFCPVCGACFTQKGNLLRHIKL [46F_47F_49P_50V_52G_53A_54C_55F_67L_, Q9UKT9] )
Result :: 2.16

Query :: # get_value(readout='log2 fold change of degron read counts', item= FYCPVCGACFTQKGNLLRHIKL [46F_47Y_49P_50V_52G_53A_54C_55F_67L_, Q9UKT9] )
Result :: 2.69

Query :: # get_value(readout='log2 fold change of degron read counts', item= FRCPVCGACFTQKGNLLRHIKL [46F_47R_49P_50V_52G_53A_54C_55F_67L_, Q9UKT9] )
Result :: 1.52

Query :: # get_value(readout='log2 fold change of degron read counts', item= FACPVCGACFTQKGNLLRHIKL [46F_47A_49P_50V_52G_53A_54C_55F_67L_, Q9UKT9] )
Result :: 1.85

Query :: # get_value(readout='log2 fold change of degron read counts', item= LDCEICGFQCTQKGNLLRHIKL [46L_47D_49E_50I_52G_53F_54Q_55C_67L_, Q9UKT9] )
Result :: -1.53
